# key: entry, value: efflux ratio at 2 h, 1 μM
# TEST: Determination of Efflux-Ratio (ER) in Caco-2 cells
# APPLIED_CONDITIONS: human, Caco-2, pH 7.4

Guide cases for efflux ratio at 2 h, 1 μM, answers given:
[
  {
    "MOLECULE": "Cn1cc(-c2ccc(CNc3cc(-c4cnc5cc(OCCCO)ccn45)ncn3)cc2)cn1",
    "MEASURED": "< 15"
  },
  {
    "MOLECULE": "COCCOc1ccn2c(-c3cc(NCc4ccc(-c5ccccc5)cc4)ncn3)cnc2c1",
    "MEASURED": "< 15"
  },
  {
    "MOLECULE": "Cn1cc(-c2ccc(CNc3cc(-c4cnc5cc(OCC(C)(C)N)ccn45)ncn3)cc2)cn1",
    "MEASURED": "15 to 50"
  },
  {
    "MOLECULE": "c1nc(NCc2ccc(-c3cocn3)cc2)cc(-c2cnc3cc(OCCCN4CCCC4)ccn23)n1",
    "MEASURED": "< 15"
  },
  {
    "MOLECULE": "Cn1cc(-c2ccc(CNc3cc(-c4cnc5cc(OCCCN[C@@H]6CCOC6)ccn45)ncn3)cc2)cn1",
    "MEASURED": "15 to 50"
  },
  {
    "MOLECULE": "Cn1cc(-c2ccc(CNc3cc(-c4cnc5cc(N6CCCC6)ccn45)ncn3)cc2)cn1",
    "MEASURED": "< 15"
  },
  {
    "MOLECULE": "Cn1cc(-c2ccc(CNc3cc(-c4cnc5cc(N6CCC(O)C6)ccn45)ncn3)cc2)cn1 (stereo not drawn)",
    "MEASURED": "> 50"
  },
  {
    "MOLECULE": "CO[C@@H]1CCN(c2ccc(CNc3cc(-c4cnc5ccccn45)ncn3)cn2)C1",
    "MEASURED": "< 15"
  }
]

Q: Look at this molecule and give its reported efflux ratio at 2 h, 1 μM. "Cn1cc(-c2ccc(CNc3cc(-c4cnc5cc(OCCO)ccn45)ncn3)cc2)cn1"
A: < 15

Q: Also "CN1CCC(COc2ccn3c(-c4cc(NCc5ccc(-n6ccnn6)cc5)ncn4)cnc3c2)CC1" ?
A: > 50

* * *

# TESTED_ON: GIST430/654 cell line expressing mutated constitutively active cKIT receptor tyrosine kinase (Δ560-576 deletion and V654A point mutation) (Homo sapiens, UniProt P10721, DEL560-576/V654A)
# Construct: endogenous in cells
# Sequence (P10721 with tags, fused parts or gaps DEL560-576/V654A): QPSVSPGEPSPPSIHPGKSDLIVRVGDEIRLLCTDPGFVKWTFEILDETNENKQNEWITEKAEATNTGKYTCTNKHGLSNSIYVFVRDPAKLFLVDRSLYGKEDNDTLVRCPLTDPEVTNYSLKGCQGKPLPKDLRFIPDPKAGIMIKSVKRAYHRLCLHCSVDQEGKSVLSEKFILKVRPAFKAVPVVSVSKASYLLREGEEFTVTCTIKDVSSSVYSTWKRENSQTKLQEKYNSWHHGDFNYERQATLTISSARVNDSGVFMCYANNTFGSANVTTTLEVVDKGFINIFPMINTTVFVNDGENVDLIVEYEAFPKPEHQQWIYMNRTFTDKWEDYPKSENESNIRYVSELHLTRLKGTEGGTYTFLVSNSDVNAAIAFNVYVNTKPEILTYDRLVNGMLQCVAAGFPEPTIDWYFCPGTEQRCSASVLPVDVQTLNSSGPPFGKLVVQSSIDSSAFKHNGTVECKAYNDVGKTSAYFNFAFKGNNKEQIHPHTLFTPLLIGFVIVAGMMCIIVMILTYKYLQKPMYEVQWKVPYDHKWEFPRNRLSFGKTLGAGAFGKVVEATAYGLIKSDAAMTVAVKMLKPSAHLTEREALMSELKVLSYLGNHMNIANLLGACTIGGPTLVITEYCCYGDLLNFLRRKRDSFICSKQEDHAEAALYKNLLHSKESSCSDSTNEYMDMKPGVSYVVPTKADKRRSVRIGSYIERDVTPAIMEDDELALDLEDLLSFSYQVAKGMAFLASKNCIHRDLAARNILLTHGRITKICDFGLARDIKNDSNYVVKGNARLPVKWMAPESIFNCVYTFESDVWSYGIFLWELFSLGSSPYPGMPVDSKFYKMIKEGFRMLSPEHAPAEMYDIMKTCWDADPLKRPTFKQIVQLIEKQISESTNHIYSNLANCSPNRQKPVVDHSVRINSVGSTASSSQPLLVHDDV
# TEST: Cellular cKIT autophosphorylation (phospho-Y307-cKIT, Luminex bead assay) in GIST430/654 cells
# APPLIED_CONDITIONS: compounds 45 min, read-out: GIST 430/654 IC50
MEASUREMENT_KIND: IC50 (nM)

[
  {
    "COMPOUND": "Cn1cc(-c2ccc(CNc3cc(-c4cnc5cc(OCCCN6CCCCC6)ccn45)ncn3)cc2)cn1",
    "UNIT_ABBREV": "nM",
    "IC50": 35
  }
]

I. Cc1nc2n(n1)CCN(CCOc1ccn3c(-c4cc(NCc5ccc(-c6cnn(C)c6)cc5)ncn4)cnc3c1)C2
II. Cn1cc(-c2ccc(CNc3cc(-c4cnc5cc(OCCCN6CCCC6)ccn45)ncn3)cc2)cn1
Q: Lab note: check whether I or II has the lower measured IC50. Answer with the label corresponding to your selection.
A: II
(II: 59 nM, I: 170 nM)

* * *

# TESTED_ON: GIST430/654 cell line expressing mutated constitutively active cKIT receptor tyrosine kinase (Δ560-576 deletion and V654A point mutation) (Homo sapiens, UniProt P10721, DEL560-576/V654A)
# Construct: endogenous in cells; host or cells: GIST430/654 cells
# TEST: Cellular cKIT autophosphorylation (phospho-Y307-cKIT, Luminex bead assay) in GIST430/654 cells
# Type: cell-based
# APPLIED_CONDITIONS: compounds 45 min, read-out: GIST 430/654 IC50
pIC50: −log10 of the molar value.
MEASUREMENT_KIND: pIC50

Guide cases for pIC50, answers given:
[
  {
    "MOLECULE": "c1cn(-c2ccc(CNc3cc(-c4cnc5cc(OCCN6CCOCC6)ccn45)ncn3)cc2)nn1",
    "pIC50": 7.20
  },
  {
    "MOLECULE": "Cn1ncc(-c2ccc(CNc3cc(-c4cnc5cc(OCCc6nccn6C)ccn45)ncn3)cc2)n1",
    "pIC50": 7.01
  },
  {
    "MOLECULE": "Cn1cc(-c2ccc(CNc3cc(-c4cnc5cc(OC6CCN(C7COC7)CC6)ccn45)ncn3)cc2)cn1",
    "pIC50": 7.04
  },
  {
    "MOLECULE": "CN(C)CCOc1ccn2c(-c3cc(NCc4ccc(-c5cnn(C)c5)cc4)ncn3)cnc2c1",
    "pIC50": 7.09
  },
  {
    "MOLECULE": "COc1ccn2c(-c3cc(NCc4ccc(-c5cnn(C6COC6)c5)cc4)ncn3)cnc2c1",
    "pIC50": 6.92
  },
  {
    "MOLECULE": "COCCOc1ccn2c(-c3cc(NCc4ccc(-c5cnn6c5CCC6)cc4)ncn3)cnc2c1",
    "pIC50": 6.96
  },
  {
    "MOLECULE": "Cn1cc(-c2ccc(CNc3cc(-c4cnc5cc(OCCCn6cccn6)ccn45)ncn3)cc2)cn1",
    "pIC50": 6.89
  },
  {
    "MOLECULE": "Cn1cc(-c2ccc(CNc3cc(-c4cnc5cc(OCCN6CCn7nccc7C6)ccn45)ncn3)cc2)cn1",
    "pIC50": 6.89
  },
  {
    "MOLECULE": "Cn1cc(-c2ccc(CNc3cc(-c4cnc5cc(OCC6CCN(CC(F)F)CC6)ccn45)ncn3)cc2)cn1",
    "pIC50": 7.17
  },
  {
    "MOLECULE": "CN1CC2(CN(CCOc3ccn4c(-c5cc(NCc6ccc(-c7cnn(C)c7)cc6)ncn5)cnc4c3)C2)OC1=O",
    "pIC50": 6.80
  }
]

A. Cn1ncc(-c2ccc(CNc3cc(-c4cnc5cc(OCCN6CCC(F)(F)C6)ccn45)ncn3)cc2)n1
B. CN1CCN(CCCOc2ccn3c(-c4cc(NCc5ccc(-c6cnn(C)c6)cc5)ncn4)cnc3c2)CC1
Q: Task for the reader: decide whether A or B has the larger pIC50. Answer with the label corresponding to your selection.
A: B
(B: 7.19, A: 6.92)

* * *

# TEST: Determination of Efflux-Ratio (ER) in Caco-2 cells
# APPLIED_CONDITIONS: human, Caco-2, pH 7.4
# key: entry, value: efflux ratio at 2 h, 1 μM

Guide cases for efflux ratio at 2 h, 1 μM, answers given:
[
  {
    "MOLECULE": "Cn1ncc(-c2ccc(CNc3cc(-c4cnc5cc(OCC6CCN(C7CC7)CC6)ccn45)ncn3)cc2)n1",
    "MEASURED": "< 15"
  },
  {
    "MOLECULE": "CN(CCOc1ccn2c(-c3cc(NCc4ccc(-c5cnn(C)c5)cc4)ncn3)cnc2c1)CC(F)(F)F",
    "MEASURED": "< 15"
  },
  {
    "MOLECULE": "CN1CCN(CCOc2ccn3c(-c4cc(NCc5ccc(-c6cnn(C)c6)cc5)ncn4)cnc3c2)C(=O)C1",
    "MEASURED": "> 50"
  },
  {
    "MOLECULE": "Cn1ncc(-c2ccc(CNc3cc(-c4cnc5cc(OCCCNC6COC6)ccn45)ncn3)cc2)n1",
    "MEASURED": "< 15"
  }
]

Q: Look at this molecule and give its reported efflux ratio at 2 h, 1 μM. Cn1cc(-c2ccc(CNc3cc(-c4cnc5cc(OCCC6CCNC6)ccn45)ncn3)cc2)cn1 (centres unmarked)
A: > 50

Q: Also "COCCOc1ccn2c(-c3cc(NCc4ccc(-c5cnn(C)c5)cc4)ncn3)cnc2c1" ?
A: < 15

Q: Also "Cn1cc(-c2ccc(CNc3cc(-c4cnc5cc(OCCN6CCn7nncc7C6)ccn45)ncn3)cc2)cn1" ?
A: 15 to 50

Q: Also "Cn1cc(-c2ccc(CNc3cc(-c4cnc5cc(OCCCN6CCCC6)ccn45)ncn3)cc2)cn1" ?
A: < 15

Q: Also "Cn1cc(-c2ccc(CNc3cc(-c4cnc5cc(OCCN6CCN(C7COC7)CC6)ccn45)ncn3)cc2)cn1" ?
A: < 15

Q: Also "Cc1nc(-c2ccc(CNc3cc(-c4cnc5cc(OCCCN6CCCC6)ccn45)ncn3)cc2)co1" ?
A: < 15

Q: Also "COc1ccn2c(-c3cc(OCc4ccc(-c5cnn(C)c5)cc4)ncn3)cnc2c1" ?
A: < 15

* * *

# TESTED_ON: GIST430/654 cell line expressing mutated constitutively active cKIT receptor tyrosine kinase (Δ560-576 deletion and V654A point mutation) (Homo sapiens, UniProt P10721, DEL560-576/V654A)
# Construct: endogenous in cells
# TEST: Cellular cKIT autophosphorylation (phospho-Y307-cKIT, Luminex bead assay) in GIST430/654 cells
# APPLIED_CONDITIONS: compounds 45 min, read-out: GIST 430/654 IC50
pIC50: −log10 of the molar value.
MEASUREMENT_KIND: pIC50

Guide cases for pIC50, answers given:
[
  {
    "COMPOUND": "Cn1cc(-c2ccc(CNc3cc(-c4cnc5cc(OCCCN6CCOCC6=O)ccn45)ncn3)cc2)cn1",
    "pIC50": 7.05
  },
  {
    "COMPOUND": "Cn1cc(-c2ccc(CNc3cc(-c4cnc5cc(OCCN6CC7CC6C[S+]7[O-])ccn45)ncn3)cc2)cn1 (stereo not drawn)",
    "pIC50": 7.00
  },
  {
    "COMPOUND": "CN1CC2CCC(C1)N2CCOc1ccn2c(-c3cc(NCc4ccc(-c5cnn(C)c5)cc4)ncn3)cnc2c1",
    "pIC50": 6.92
  },
  {
    "COMPOUND": "Cn1ncc(-c2ccc(CNc3cc(-c4cnc5cc(OCC6CCN(CC#N)CC6)ccn45)ncn3)cc2)n1",
    "pIC50": 6.80
  },
  {
    "COMPOUND": "Cn1cc(-c2ccc(CNc3cc(-c4cnc5cc(N)ccn45)ncn3)cc2)cn1",
    "pIC50": 6.74
  }
]

1. COc1ccn2c(-c3ncnc(NCc4ccc(-c5cnn(C)c5)cc4)c3F)cnc2c1
2. Cn1cc(-c2ccc(CNc3cc(-c4cnc5cc(OCCN6CC(S(C)(=O)=O)C6)ccn45)ncn3)cc2)cn1
3. COc1ccn2c(-c3cc(NCc4ccc(-c5cnn(C)c5)cc4)ncn3)cnc2c1
4. COc1ccn2c(-c3cc(NCc4ccc(-c5cn(C)nc5OC)cc4)ncn3)cnc2c1
Q: Order the entries by their reported pIC50, beginning at the minimum. Please reply with the labels ordered as requested. Many thanks.
A: 4, 1, 2, 3
